measurement.target: human PPAR-γ (Homo sapiens)
assay.overview: PathHunter NHR Protein Interaction assay, PPAR-γ agonist activity (CHO cells)
recorded.conditions: read-out: Half Maximal Effective Concentration (EC50); PPAR-γ; Table 5

test.smiles	EC50
CCCCCCCCCCCCCCCC(=O)O	> 100 µM
CCCCCCCCCCCCCCC(=O)O	> 100 µM

###

measurement.target: human PPAR-δ (Homo sapiens, UniProt Q03181)
Sequence (Q03181 whole entry): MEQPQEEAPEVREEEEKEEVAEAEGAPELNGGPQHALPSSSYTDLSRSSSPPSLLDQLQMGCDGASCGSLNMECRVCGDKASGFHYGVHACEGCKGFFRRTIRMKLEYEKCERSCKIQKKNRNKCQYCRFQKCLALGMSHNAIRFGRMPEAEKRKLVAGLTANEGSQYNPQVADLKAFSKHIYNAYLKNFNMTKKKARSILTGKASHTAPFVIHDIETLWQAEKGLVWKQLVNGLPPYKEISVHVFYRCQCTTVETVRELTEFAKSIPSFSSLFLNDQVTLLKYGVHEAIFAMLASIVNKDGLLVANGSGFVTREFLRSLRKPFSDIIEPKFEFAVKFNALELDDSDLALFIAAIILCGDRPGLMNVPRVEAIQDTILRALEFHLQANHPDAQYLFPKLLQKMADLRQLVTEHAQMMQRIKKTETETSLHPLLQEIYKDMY
assay.overview: PathHunter NHR Protein Interaction assay, PPAR-δ agonist activity (CHO cells)
pEC50: −log10 of the molar value.

molecule	pEC50
CCCCCCCCCCCCCC(CC)C(=O)O (stereo not shown) [2-ethyl-C15:0, 2-ethylpentadecanoic acid]	6.52

###

assay.overview: 24-hour plasma pharmacokinetics after single oral dose in rats
Type: in vivo
recorded.conditions: rat, po, 35 mg/kg, 35 mg/kg single oral dose, estimate using an AUC of 15 for a 1 mg/kg IV arm, read-out: % F

compound	bioavailability [%]
CCCCCCCCCCCCCCC(=O)O [C15:0, pentadecanoic acid]	8.83
CCCCCCCCCCCCCC(C)C(=O)O (centres unmarked) [2-methyl-C15:0, 2-methylpentadecanoic acid]	34.7

###

assay.overview: 24-hour plasma pharmacokinetics after single oral dose in rats
Type: in vivo
recorded.conditions: rat, 5 mg/kg single oral dose, deuterated form

compound	measure.unit	Cmax
CCCCCCCCCCCCCC(C)C(=O)O (stereo not shown) [2-methyl-C15:0, 2-methylpentadecanoic acid]	ng/mL	3590

###

Overview of reported pEC50 across a group of compounds:
measurement.target: human PPAR-α (Homo sapiens)
Sequence (Q07869 1-468): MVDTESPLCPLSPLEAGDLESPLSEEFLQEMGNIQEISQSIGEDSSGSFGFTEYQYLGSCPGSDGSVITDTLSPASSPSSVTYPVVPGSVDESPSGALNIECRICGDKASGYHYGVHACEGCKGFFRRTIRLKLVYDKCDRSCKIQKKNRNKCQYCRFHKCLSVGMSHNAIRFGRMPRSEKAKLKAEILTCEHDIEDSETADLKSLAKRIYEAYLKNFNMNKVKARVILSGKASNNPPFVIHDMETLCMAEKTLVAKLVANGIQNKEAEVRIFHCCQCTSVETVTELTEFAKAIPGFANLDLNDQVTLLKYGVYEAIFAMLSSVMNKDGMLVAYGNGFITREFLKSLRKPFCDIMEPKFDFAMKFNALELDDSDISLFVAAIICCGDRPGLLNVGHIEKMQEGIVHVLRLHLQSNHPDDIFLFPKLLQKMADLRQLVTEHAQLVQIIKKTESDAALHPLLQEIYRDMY
assay.overview: PathHunter NHR Protein Interaction assay, PPAR-α agonist activity (CHO cells)
recorded.conditions: Half Maximal Effective Concentration (EC50), PPAR-α; Table 5
pEC50: −log10 of the molar value.
parameter: pEC50

compound	parameter	endpoint.value
CCCCCCCCCCCCCC(CC)C(=O)O (stereo not drawn) [2-ethyl-C15:0, 2-ethylpentadecanoic acid]	pEC50	5.92
CCCCCCCCCCCCCCCC(=O)O [C16:0, palmitic acid]	pEC50	4.56
CCCCCCCCCCCCCC(=O)O [C14:0, myristic acid]	pEC50	5.08

###

measurement.target: human PPAR-α (Homo sapiens)
Sequence (Q07869 1-468): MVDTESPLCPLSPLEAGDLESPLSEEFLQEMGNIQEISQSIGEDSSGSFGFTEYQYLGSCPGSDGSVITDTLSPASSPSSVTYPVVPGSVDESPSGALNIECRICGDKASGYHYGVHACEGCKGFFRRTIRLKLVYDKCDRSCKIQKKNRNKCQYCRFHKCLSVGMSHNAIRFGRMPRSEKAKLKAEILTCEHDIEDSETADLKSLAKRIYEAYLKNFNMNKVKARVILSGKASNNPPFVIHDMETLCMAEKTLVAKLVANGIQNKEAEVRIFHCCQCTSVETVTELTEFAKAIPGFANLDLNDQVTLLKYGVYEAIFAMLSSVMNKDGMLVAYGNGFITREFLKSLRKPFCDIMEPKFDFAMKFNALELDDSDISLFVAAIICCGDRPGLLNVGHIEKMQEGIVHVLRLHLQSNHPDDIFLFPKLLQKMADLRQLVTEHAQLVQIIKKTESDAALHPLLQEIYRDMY
assay.overview: PathHunter NHR Protein Interaction assay, PPAR-α agonist activity (CHO cells)
recorded.conditions: PPAR-alpha; Table 4
parameter: EC50 (µM)

molecule	measurement.target	parameter	endpoint.value
CCCCCCCCCCCCCCC(=O)O [C15:0, pentadecanoic acid]	human PPAR-α (Homo sapiens)	EC50	11.5

###

measurement.target: human PPAR-α (Homo sapiens, UniProt Q07869)
assay.overview: PathHunter NHR Protein Interaction assay, PPAR-α agonist activity (CHO cells)
recorded.conditions: EC50, PPAR-alpha; Table 4
pEC50: −log10 of the molar value.
// reported pEC50 for each item listed
parameter: pEC50

test.smiles	parameter	comparison.operator	endpoint.value
CCCCCCCCCCCCCCCC(=O)O	pEC50	=	4.56
CCCCCCCCCCCCCC(=O)O	pEC50	=	5.08
CCCCCCCCCCCCCCCCC(=O)O	pEC50	<	4.00

###

measurement.target: human PPAR-α (Homo sapiens, UniProt Q07869)
Sequence (Q07869 1-468): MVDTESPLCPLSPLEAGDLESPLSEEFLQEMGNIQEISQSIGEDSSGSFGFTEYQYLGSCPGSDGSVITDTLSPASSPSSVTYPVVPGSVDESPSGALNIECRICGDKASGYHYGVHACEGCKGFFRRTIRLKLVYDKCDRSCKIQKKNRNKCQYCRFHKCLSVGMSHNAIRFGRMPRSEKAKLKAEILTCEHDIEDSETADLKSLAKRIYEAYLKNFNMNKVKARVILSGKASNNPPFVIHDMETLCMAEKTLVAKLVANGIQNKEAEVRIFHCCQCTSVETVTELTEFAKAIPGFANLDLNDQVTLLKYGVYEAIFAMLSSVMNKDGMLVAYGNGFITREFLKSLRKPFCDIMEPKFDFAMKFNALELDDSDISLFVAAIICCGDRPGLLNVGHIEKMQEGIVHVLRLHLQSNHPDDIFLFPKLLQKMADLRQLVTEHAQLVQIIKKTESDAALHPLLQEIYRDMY
assay.overview: PathHunter NHR Protein Interaction assay, PPAR-α agonist activity (CHO cells)
recorded.conditions: EC50, PPAR-alpha; Table 7
pEC50: −log10 of the molar value.

test.smiles	pEC50
CCCCCCCCCCCCCCCC(=O)O	4.56

###

measurement.target: human PPAR-γ (Homo sapiens, UniProt P37231)
Sequence (P37231 whole entry): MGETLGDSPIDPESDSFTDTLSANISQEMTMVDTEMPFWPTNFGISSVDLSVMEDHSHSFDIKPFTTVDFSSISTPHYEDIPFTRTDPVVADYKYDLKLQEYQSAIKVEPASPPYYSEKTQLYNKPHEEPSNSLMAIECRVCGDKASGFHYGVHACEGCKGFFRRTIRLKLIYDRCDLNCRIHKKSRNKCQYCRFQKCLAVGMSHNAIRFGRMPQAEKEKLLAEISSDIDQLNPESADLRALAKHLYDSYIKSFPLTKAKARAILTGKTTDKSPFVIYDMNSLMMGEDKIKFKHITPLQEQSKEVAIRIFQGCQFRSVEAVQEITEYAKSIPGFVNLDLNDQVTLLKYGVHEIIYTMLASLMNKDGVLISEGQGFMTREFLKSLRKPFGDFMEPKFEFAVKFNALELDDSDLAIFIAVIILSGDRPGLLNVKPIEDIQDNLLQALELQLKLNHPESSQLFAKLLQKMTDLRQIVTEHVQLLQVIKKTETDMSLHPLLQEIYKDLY
assay.overview: PathHunter NHR Protein Interaction assay, PPAR-γ agonist activity (CHO cells)

compound	measurement.target	EC50
CCCCCCCCCCCCCC(=O)O [C14:0, myristic acid]	human PPAR-γ (Homo sapiens, UniProt P37231)	> 100 µM
CCCCCCCCCCCCCCC(=O)O [C15:0, pentadecanoic acid]	human PPAR-γ (Homo sapiens, UniProt P37231)	> 100 µM
CCCCCCCCCCCCCCCC(=O)O [C16:0, palmitic acid]	human PPAR-γ (Homo sapiens, UniProt P37231)	> 100 µM
CCCCCCCCCCCCCC(CC)C(=O)O (centres unmarked) [2-ethyl-C15:0, 2-ethylpentadecanoic acid]	human PPAR-γ (Homo sapiens, UniProt P37231)	51 µM
CCCCCCCCCCCCCCCCC(=O)O [C17:0, heptadecanoic acid]	human PPAR-γ (Homo sapiens, UniProt P37231)	> 100 µM

###

# AUC(0-t) values compiled below
assay.overview: 24-hour plasma pharmacokinetics after single oral dose in rats
Format: in vivo
recorded.conditions: rat, 35 mg/kg single oral dose

molecule	AUC(0-t) [µg·h/mL]
CCCCCCCCCCCCCCC(=O)O	46.4
CCCCCCCCCCCCCC(C)C(=O)O (centres unmarked)	182

All figures here come from patent US11951088B2.
